Provide the recorded pKi for the entries that follow.
Target: 5-hydroxytryptamine receptor 1A (Rattus norvegicus, UniProt P19327)
Sequence (P19327 whole entry): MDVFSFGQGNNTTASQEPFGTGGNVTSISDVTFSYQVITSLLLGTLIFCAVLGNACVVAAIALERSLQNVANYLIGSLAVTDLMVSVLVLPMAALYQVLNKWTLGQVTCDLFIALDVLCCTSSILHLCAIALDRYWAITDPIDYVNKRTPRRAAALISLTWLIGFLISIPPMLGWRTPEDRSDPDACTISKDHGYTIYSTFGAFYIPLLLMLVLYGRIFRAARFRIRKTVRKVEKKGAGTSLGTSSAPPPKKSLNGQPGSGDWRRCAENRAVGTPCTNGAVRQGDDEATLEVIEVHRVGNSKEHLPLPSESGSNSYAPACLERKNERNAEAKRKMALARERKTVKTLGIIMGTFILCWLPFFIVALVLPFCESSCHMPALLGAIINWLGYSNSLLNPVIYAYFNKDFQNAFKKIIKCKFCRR
Give bare numbers, as −log10 of the molar value.

Record pKi per entry; entries follow.
1. CCCN[C@@H]1CCc2c(F)cccc2C1
2. CCCCN[C@@H]1CCc2c(F)cccc2C1
3. O=C1CC2(CCCC2)CC(=O)N1CCCCN[C@@H]1CCc2c(F)cccc2C1
4. CCCN(CCCCN1C(=O)CC2(CCCC2)CC1=O)[C@@H]1CCc2c(F)cccc2C1
5. CCCN(C(C)C)[C@@H]1CCc2c(F)cccc2C1

Solution:
1: 6.97; 2: 6.36; 3: 8.19; 4: 9.61; 5: 6.19

====

Molecular target: D(2) dopamine receptor (Homo sapiens, UniProt P14416)
Sequence (P14416 whole entry): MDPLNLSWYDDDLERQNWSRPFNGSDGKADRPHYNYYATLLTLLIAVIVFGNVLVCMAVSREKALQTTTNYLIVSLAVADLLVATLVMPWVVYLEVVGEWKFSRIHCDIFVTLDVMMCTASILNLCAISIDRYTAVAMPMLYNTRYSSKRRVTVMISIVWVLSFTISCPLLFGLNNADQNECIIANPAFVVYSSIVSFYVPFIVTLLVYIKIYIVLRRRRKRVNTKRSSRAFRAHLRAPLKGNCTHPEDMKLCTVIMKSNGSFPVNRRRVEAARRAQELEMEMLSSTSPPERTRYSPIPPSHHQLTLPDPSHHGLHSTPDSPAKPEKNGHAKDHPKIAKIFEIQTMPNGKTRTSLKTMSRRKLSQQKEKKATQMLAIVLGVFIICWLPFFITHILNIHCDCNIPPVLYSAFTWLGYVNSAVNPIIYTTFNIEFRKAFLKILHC
Test: Hill coefficients for [3H]-raclopride binding to dopamine D2 receptor high-and low-affinity agonist states
Property: nH
Give bare numbers.

{"Item Smiles": "N[C@@H]1CCc2c(F)cccc2C1", "nH": 0.81}
{"Item Smiles": "CCCCN[C@@H]1CCc2c(F)cccc2C1", "nH": 0.93}
{"Item Smiles": "O=C1CC2(CCCC2)CC(=O)N1CCCCN[C@@H]1CCc2c(F)cccc2C1", "nH": 0.88}

Lab note: next compound to report on.
Exercise: Reported nH for D(2) dopamine receptor (Homo sapiens, UniProt P14416), given NCCc1ccc(O)c(O)c1 ?
Solution: 0.66
